The values you see were collected from patent US20180244757A1.

Target: Heartland virus (HRTV) nucleocapsid (N) protein (Heartland virus (HRTV))
Assay procedure: ELISA, purified HRTV coated on the plate, MAb titrated

Binder | Unit symbol | ELISA endpoint titer
MAb 2AG9 (antibody, V domains shown) VH: ELARPGASVKLSCKASGYTFTNYYMQWIKQRPGQGLEWIGAVYPGDGDTRYTQKFKGKASLTADKSSTTAYMQLSSLASEDSAVYYCTRGDYEGTWFTYWGQGTLVTVSA VL: DIVMTQTTAIMSASPGEKVTMTCSASSSVSYMHWYQQKSGTSPKRWMYDTSKLASGVPGRFSGSGSGTTYSLTISTMEAEDAATYYCQQWSSNPPTFGGGTKLEIK | ng/mL | 1.53
MAb 2BA2 (antibody, V domains shown) VH: VQLQESGPGLVKPSQPLSLTCSVTGYSITSAYYWNWIRQFPGNKLEWMGYITYDGTNNYNPSLKNRISITRDTSKNQFFLKLNSVTTEDTASYYCARDVATVGAMDYWGQGTSVTVSS VL: SIVMTQTPKFLLVSAGDRVTITCKASQSVSNDVAWYQQKPGQSPKLLIYFASNRYTGVPDRFTGSGYGTDFTFTISTVLAEDLALYFCQQDYSSPRTFGGGTKLEVK | ng/mL | 39.1
MAb 2BB8 (antibody, V domains shown) VH: QAYLQQSGAELVRSGASLKMSCKASGYTFTSYNLHWVKQTPGQGLEWIGYIFPGNGGTAYNEKFKGKATLTADTSSSTAYMQISSLTSEDSAVYFCARGGPYYALDYWGQGTSVTVSS VL: DIQMTQSPASLSASVGETVTITCRTSGNIHTYLAWYQHKQGKSPQLLVYYAKTLADGVPSRFSGSGSGTQYSLKINSLQPEDFGSYYCQHFWSNPRTFGGGTKLEIK | ng/mL | 0.61
